Quick reference for pKd among some binders
- target system: T1, EsCas13d, nuclease-dead (Eubacterium siraeum, UniProt B0MS50, R295A;H300A;R849A;H854A)
- T1 sequence: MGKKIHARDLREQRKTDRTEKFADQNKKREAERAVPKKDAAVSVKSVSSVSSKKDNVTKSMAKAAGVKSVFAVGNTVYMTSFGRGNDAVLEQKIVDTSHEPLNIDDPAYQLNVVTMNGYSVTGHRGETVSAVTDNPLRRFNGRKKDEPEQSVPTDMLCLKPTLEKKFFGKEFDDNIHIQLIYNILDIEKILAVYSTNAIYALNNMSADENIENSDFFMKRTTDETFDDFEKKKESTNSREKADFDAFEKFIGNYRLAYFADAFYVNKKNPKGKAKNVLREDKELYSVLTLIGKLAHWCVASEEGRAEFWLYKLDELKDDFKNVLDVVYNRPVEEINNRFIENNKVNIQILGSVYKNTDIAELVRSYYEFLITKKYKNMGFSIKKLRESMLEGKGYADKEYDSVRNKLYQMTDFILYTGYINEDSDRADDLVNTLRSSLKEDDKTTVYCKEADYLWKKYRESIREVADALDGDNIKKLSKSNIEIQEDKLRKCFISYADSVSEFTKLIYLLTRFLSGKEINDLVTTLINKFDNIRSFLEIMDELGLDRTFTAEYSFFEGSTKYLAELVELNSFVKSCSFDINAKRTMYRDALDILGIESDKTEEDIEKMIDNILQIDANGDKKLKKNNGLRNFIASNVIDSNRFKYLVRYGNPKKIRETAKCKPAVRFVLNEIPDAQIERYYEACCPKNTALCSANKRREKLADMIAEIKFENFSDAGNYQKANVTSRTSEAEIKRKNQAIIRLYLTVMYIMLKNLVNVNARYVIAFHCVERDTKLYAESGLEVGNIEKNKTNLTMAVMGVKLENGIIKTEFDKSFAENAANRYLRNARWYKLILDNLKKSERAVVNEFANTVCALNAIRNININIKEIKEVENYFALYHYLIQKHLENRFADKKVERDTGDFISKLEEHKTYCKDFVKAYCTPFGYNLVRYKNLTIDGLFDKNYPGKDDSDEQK
- test details: crRNA (strand 1, pre-loaded); Mg2+; 40 mM Tris-HCl pH 7.5, 150 mM NaCl, 6 mM MgCl2, 1 mM DTT, 0.1% Tween-20, 0.2 mg/ml BSA; 25 C; 10 min per concentration, then washed
- condition notes: tags: His6-TwinStrep-SUMO cleaved; N-terminal SNAP kept (SNAP-Surface 488); label: 3' end held by stalled T7 RNA polymerase
pKd: −log10 of the molar value.
measured property: pKd

| binder | measured property | result |
| --- | --- | --- |
| target 3 U7A,A18G (mixed) RNA 1: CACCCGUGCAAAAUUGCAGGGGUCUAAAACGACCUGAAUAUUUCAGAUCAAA RNA 2: GGGAAUGGAUCCACAUCUACGAAUUCGUUUUUGGUCUGAAAUAUACAGGUCUGCAGAUCGGAAGAGCACACGU | pKd | 7.31 |
| target 1 G15A,C21U (mixed) RNA 1: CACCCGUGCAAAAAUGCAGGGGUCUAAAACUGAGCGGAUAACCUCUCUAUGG RNA 2: GGGAAUGGAUCCACAUCUACGAAUUCGUACUAUAGAAAGGUUAUCCGCUCACCGAGAUCGGAAGAGCACACGU | pKd | 8.16 |
| target 1 C4G,C7U (mixed) RNA 1: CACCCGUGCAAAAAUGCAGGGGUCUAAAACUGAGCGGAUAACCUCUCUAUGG RNA 2: GGGAAUGGAUCCACAUCUACGAAUUCGUACCAUAGAGAGGUUAUUCGGUCACCGAGAUCGGAAGAGCACACGU | pKd | 8.42 |
| target 2 MT 5'PFS GGC 3'PFS AGA (mixed) RNA 1: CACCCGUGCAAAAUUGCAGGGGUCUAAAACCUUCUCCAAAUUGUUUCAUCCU RNA 2: GGGAAUGGAUCCACAUCUACGAAUUCGGCAGGAUGAAACAAUUUGGAGAAGAGAAGAUCGGAAGAGCACACGU | pKd | 7.98 |
